Molecular target: T1, hGPVI-hFc fusion protein (human)
T1 construct: also called GPVI-Fc; human GPVI-Fc fusion protein
Experiment: DELFIA competition assay: Fab preincubated with GPVI-Fc (3 µg/ml), binding to collagen-coated plate, Test 3
endpoint-name: IC50 (µg/mL)
Enter your answer as a number in µg/mL; do not include the unit.

binder | IC50 (µg/mL)
humanized anti-GPVI Fab VL3/VH2 (Fab, V domains shown, Recombinant Fab: VH fused to CH1 of human IGHG1 (Q569F4), HC ends in DKTHT; VL fused to human constant kappa (Q502W4); also called VL3 with VH2) VH: QVQLQESGPGLVAPSQSLSITCTVSGFSLTGYGVNWVRQPPSRGLEWLGMIWGDGSTDYQSTLKSRLSISKDNSKSQVFLKMNSLTTDDTARYYCARDLPMDYWGQGTSVTVSS VL: DIQMTQSPSSLSASVGGRVTITCKASQDINKYIAWYQHKPGKGPSLLIHYTSTLQPGVPSRFSGSGSGRDYSFSISNLQPEDIATYYCLQYALLLTFGGGTKLEIKR | 1.04
humanized anti-GPVI Fab VL1/VH3 (Fab, V domains shown, Recombinant Fab: VH fused to CH1 of human IGHG1 (Q569F4), HC ends in DKTHT; VL fused to human constant kappa (Q502W4); also called VL1 with VH3) VH: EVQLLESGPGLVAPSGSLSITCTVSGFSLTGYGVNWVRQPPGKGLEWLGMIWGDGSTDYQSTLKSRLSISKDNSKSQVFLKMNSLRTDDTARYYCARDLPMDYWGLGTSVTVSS VL: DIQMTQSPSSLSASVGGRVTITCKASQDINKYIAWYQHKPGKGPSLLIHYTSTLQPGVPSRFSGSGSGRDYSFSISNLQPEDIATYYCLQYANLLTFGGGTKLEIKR | 0.87

Note: attention shifts to another entry.
-- ask Could you share which IC50 value was measured for humanized anti-GPVI Fab VL1/VH4 (Fab, V domains shown, Recombinant Fab: VH fused to CH1 of human IGHG1 (Q569F4), HC ends in DKTHT; VL fused to human constant kappa (Q502W4); also called VL1 with VH4) VH: QVQLQESGPGLVAPSQSLSITCTVSGFSLTYYGVNWVRQPPSRGLEWLGMIWGDGSTDYQSTLKSRLSISKDNSKSQVFLKMNSLTTDDTARYYCARDLPMDYWGQGTSVTVSS VL: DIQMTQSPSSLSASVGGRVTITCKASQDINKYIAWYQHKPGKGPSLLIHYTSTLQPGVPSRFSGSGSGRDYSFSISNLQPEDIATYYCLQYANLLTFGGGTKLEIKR ?
-- reply 1.06
